Source listed as PubChem BioAssay AID743398.

assay: Wnt/beta-catenin pathway activators, primary screen, cell-based, plate reader, single point (AID 743398); conditions: Wnt/beta-catenin reporter cell assay, activator, at 9.35 µM, hits give high values;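 note: 0% = neutral control wells and 100% = positive control wells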
Out of some 300,000 compounds screened, about 3,600 (1.2%) were called active. This is one part of a sample in which actives are shown more often than they occur.
Please provide measured activation for the entries that follow.
One number for each entry, in %.

Past entries and their recorded results:
Cc1cccc(NC(=O)Nc2ccc3c(c2)OCO3)n1 ... 44.4
Clc1cccc(Cl)c1Cn1nnc(-c2cccs2)n1 ... 32.4
COc1ccc(OC)c(CN2C(=O)CCC2(C)c2nnnn2Cc2ccccc2)c1 (stereo not given) ... -0.624
CCOC(=O)N1CCC(Nc2c(NCCCN3CCN(CC)CC3)c(=O)c2=O)CC1 ... 1.91
COc1ccc(OCCC(=O)c2ccc(OC)cc2)cc1 ... -1.86

Below are some compounds; for each one, tell me its activation.
1. O=C(C(=O)N1CCC(c2ccccc2)CC1)c1ccccc1
2. CSc1ccc(CN2CCC2(C)C(=O)NCc2ccccc2Br)cc1 (stereo not given)
3. Cc1ccc(C(=O)N/C(=C/c2cccs2)C(=O)NCC2CCCO2)cc1 (stereo not given)
4. Cc1csc(NC(=O)c2ccc(C)s2)n1
5. COc1ccc(CCC(=O)c2ccc(OC)cc2)cc1
6. COC(=O)[C@H](CC(C)C)NC(=O)N1CCCCC1C (stereo not given in full)

OUT:
[-2.25, -0.564, -12.8, 43.1, 5.92, 39.6]
